pIC50: −log10 of the molar value.
Endpoint summary: pIC50, system: UniProt Q9UM73, multiple sources combined.
Observed Property: pIC50

Sample answers from the record:
Mol Smiles: CN1CCN(c2ccc(C(=O)Nc3n[nH]c4ccc(Cc5cc(F)cc(F)c5)cc34)c(N[C@H]3CC[C@H](O)CC3)c2)CC1
Assay Result: 8.00

Mol Smiles: CC(=O)N1CCc2[nH]c(/C=C3\C(=O)Nc4ccc(OC(C)C)cc43)cc2C1
Assay Result: 5.48

1. CN1CCC(Oc2ccc(C(=O)Nc3n[nH]c4ccc(Cc5cc(F)cc(F)c5)cc34)c(NC3CCOCC3)c2)CC1
2. COc1cc(N2CCC(CN3CCC3)CC2)ccc1Nc1ncc(Cl)c(Nc2ccccc2P(C)(C)=O)n1
IN: Decide: 1 or 2 , by lowest recorded pIC50. Give the label of your selection.
OUT: 1

I. O=C(Nc1cccc(-n2cc(CNc3ccc(N4CCC(O)CC4)c(C(=O)N4CCCCC4)c3)nn2)c1)c1cc(F)cc(F)c1
II. Cc1cc(Cl)c2c(n1)N(CCc1ccccc1)CCc1c-2[nH]c2ccccc12
IN: Decide: I or II , by lowest recorded pIC50. Give the label of your selection.
OUT: II

====

Endpoint summary: pIC50, system: ALK tyrosine kinase receptor (Homo sapiens, UniProt Q9UM73), multiple sources combined.
pIC50: −log10 of the molar value.
Observed Property: pIC50

Sample answers from the record:
Mol Smiles: CN1CCN(CCCc2ccc(NC(=O)c3cc(-c4ccc5c(c4)OCO5)cnc3O)cc2)CC1
Assay Result: 5.89
--
Mol Smiles: CN1CCN(c2ccc(C(=O)Nc3n[nH]c4ccc(Cc5cc(F)cc(F)c5)cc34)c(NCC3CN(C)C3)c2)CC1
Assay Result: 7.17

1. CCCc1cc2c(cc1N1CCC(N3CCOCC3)CC1)C(C)(C)c1[nH]c3cc(C#N)ccc3c1C2=O
2. Cc1cc(Nc2nc(Nc3ccccc3S(=O)(=O)C(C)C)c3c(C)[nH]nc3n2)c(OC(C)C)cc1C1CCN(C)CC1
3. CN1CCN(c2ccc(C(=O)Nc3n[nH]c4ccc(Cc5cc(F)cc(F)c5)cc34)cc2)CC1
4. COc1cc(-c2nc3cc(C)ccn3c2/N=C/c2cc(Cl)ccc2O)ccc1O
IN: Exam item: list the entries in increasing order of pIC50. // rank by listing labels in the order requested
OUT: 4, 3, 2, 1
(4: 5.62, 3: 7.14, 2: 8.40, 1: 8.96)

====

Endpoint summary: IC50, system: ALK tyrosine kinase receptor (Homo sapiens), multiple sources combined.
Observed Property: IC50 (nM)

Sample answers from the record:
Molecule: C[C@H]1Nc2ccc3ncc(n3n2)C(=O)NC2(CC2)COc2ccccc21
Test System: ALK tyrosine kinase receptor (Homo sapiens)
Measure Unit: nM
Assay Result: 27
--
Molecule: C[C@@H](c1cc(F)cc(F)c1)c1ccc2[nH]nc(NC(=O)c3ccc(N4CCN(C)CC4)cc3NC3CCOCC3)c2c1
Test System: ALK tyrosine kinase receptor (Homo sapiens)
Measure Unit: nM
Assay Result: 19

P. COc1cc(-n2cccc2C(=O)N2CCSCC2)ccc1Nc1ncc(Cl)c(Nc2ccccc2NS(C)(=O)=O)n1
Q. Cc1[nH]c(/C=C2\C(=O)Nc3ccc(F)cc32)c(C)c1C(=O)O
R. COc1cc2c(cc1Nc1ncc(Cl)c(Nc3ccccc3S(=O)(=O)C(C)C)n1)C(C)(C)C(O)CC2 (stereo not given)
S. CCc1cc2c(cc1N1CCN(C(=O)CNc3cccc4c3C(=O)N(C3CCC(=O)NC3=O)C4=O)CC1)C(C)(C)c1[nH]c3cc(C#N)ccc3c1C2=O (stereo not given)
IN: Order the records by IC50, with each subsequent value no larger than the one before. // rank by listing labels in the order requested
OUT: S, Q, R, P
